Biological target: FAAH (fatty acid amide hydrolase) (Mus musculus)
Sequence (O08914 1-579): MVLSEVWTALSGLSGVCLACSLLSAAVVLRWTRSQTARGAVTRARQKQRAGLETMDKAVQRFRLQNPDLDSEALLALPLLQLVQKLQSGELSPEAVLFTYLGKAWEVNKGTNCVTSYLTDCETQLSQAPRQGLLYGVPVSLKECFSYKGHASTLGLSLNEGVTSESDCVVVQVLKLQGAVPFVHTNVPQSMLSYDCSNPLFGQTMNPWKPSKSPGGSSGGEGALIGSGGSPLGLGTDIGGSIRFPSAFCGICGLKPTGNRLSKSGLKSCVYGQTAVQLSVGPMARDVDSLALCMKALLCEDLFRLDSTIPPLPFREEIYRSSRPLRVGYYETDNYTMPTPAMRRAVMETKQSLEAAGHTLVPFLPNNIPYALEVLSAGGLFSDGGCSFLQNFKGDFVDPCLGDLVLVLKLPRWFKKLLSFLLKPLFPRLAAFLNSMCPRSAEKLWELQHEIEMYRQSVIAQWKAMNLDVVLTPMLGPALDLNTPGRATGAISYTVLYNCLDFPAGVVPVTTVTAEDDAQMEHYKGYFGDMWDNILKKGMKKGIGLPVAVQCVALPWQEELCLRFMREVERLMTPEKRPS
pIC50: −log10 of the molar value.

query_smiles: CNC(=O)COC(=O)N1CCN(CCCc2ccc(-c3ccccc3)cc2)CC1
pIC50: 7.49
//
query_smiles: CNC(=O)COC(=O)N1CCN(CCc2cccc3ccccc23)CC1
pIC50: 7.14

----------
Counter-ions that a name gives are not always drawn.
Each record here notes measured melting point.
measured_quantity: melting point

compound: CNC(=O)COC(=O)N1CCN(CCc2cc(-c3ccc(Cl)cc3)no2)CC1
readout_value: 130 to 132 °C
--
compound: CNC(=O)COC(=O)N1CCN(C/C=C/c2ccccc2)CC1
readout_value: 109 to 111 °C
--
compound: CNC(=O)COC(=O)N1CCN(CCc2ccc3ccccc3c2)CC1
readout_value: 133 to 135 °C
--
compound: NC(=O)COC(=O)N1CCCN(CC#Cc2cccc(C(F)(F)F)c2)CC1
readout_value: 102 to 104 °C
--
compound: CNC(=O)COC(=O)N1CCN(CCOc2ccc(Cl)cc2)CC1
readout_value: 159 to 161 °C
--
compound: CNC(=O)COC(=O)N1CCN(CCCc2cccc(-c3cccc(Cl)c3)c2)CC1
readout_value: 82 to 85 °C
--
compound: CNC(=O)COC(=O)N1CCN(C(C)(C)CCc2cccc(-c3ccccc3)c2)CC1 (as salt: HCl)
readout_value: 212 to 216 °C (dec.)
